Molecular target: T1, MCL-1 (UniProt:Q07820, residues 168–327, C286S) (human, UniProt Q07820 168-327, C286S)
T1 construct: extra GS left at the N-terminus after removal of the tag with thrombin; human MCL-1, residues 168-327, without the disordered N-terminus and the C-terminal transmembrane region; Theoretical mass 18409.74 Da; source: E. coli C41(DE3), purified (Ni-NTA, thrombin cleavage, cation exchange, SEC); not shown: His6, N-terminal, cleaved
T1 sequence (Q07820 other isoform, or with tags, fused parts or gaps C286S | C286S | C286S C286S): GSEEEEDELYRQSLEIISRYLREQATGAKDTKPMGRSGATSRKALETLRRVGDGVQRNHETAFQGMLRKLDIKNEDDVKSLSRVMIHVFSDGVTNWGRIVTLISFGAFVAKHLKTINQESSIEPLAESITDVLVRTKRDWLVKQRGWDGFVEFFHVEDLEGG
Test: stopped-flow association kinetics + other: out-competition dissociation kinetics; affinities of BH3 peptides for MCL-1 in buffer without detergent (Table 1); how Kd was obtained is not told in the text shown
Settings: both partners purified
pKd: −log10 of the molar value. No end group written: not given here. *: point of attachment. TAMRA = 5-carboxytetramethylrhodamine, CN(C)c1ccc2c(-c3ccc(C(=O)*)cc3C(=O)[O-])c3ccc(=[N+](C)C)cc-3oc2c1
measure_name: pKd

binder="{TAMRA}-ALQPSSTMGQVGRQLAIIGDDINRRYDSEFQTMLQ (peptide, UniProt Q16611 64-98, looked up, source: synthetic peptide, bought: Biomatik) [BAKBH3, TAMRA-labelled 35-residue peptide (UniProt:Q16611, residues 64–98, P64A)]" test_result=10.10
